Taken from patent US20070031415A1.

experimental-target: T1, human p30 (RAPL), wild type (human)
T1 construct: also called hp30; wild type p30
T1 chain: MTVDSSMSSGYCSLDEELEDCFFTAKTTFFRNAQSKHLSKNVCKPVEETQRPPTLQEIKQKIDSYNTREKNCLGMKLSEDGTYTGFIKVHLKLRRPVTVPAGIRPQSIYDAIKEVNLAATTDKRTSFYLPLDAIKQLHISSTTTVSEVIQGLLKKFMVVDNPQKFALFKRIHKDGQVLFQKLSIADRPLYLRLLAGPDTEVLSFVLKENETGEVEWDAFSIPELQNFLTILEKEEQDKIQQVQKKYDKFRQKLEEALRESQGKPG
assay-name: association of Rap1V12 point mutants with p30, assay not detailed
test-readout: binding result

binder	result
Rap1V12 D38E (enzyme, Point mutation in the effector region of the active Rap1V12) MREYKLVVLGSVGVGKSALTVQFVQGIFVEKYDPTIEESYRKQVEVDCQQCMLEILDTAGTEQFTAMRDLYMKNGQGFALVYSITAQSTFNDLQDLREQILRVKDTEDVPMILVGNKCDLEDERVVGKEQGQNLARQWCNCAFLESSAKSKINVNEIFYDLVRQINRKTPVEKKKPKKKSCLLL	no binding
Rap1V12 T35E (enzyme, Point mutation in the effector region of the active Rap1V12) MREYKLVVLGSVGVGKSALTVQFVQGIFVEKYDPEIEDSYRKQVEVDCQQCMLEILDTAGTEQFTAMRDLYMKNGQGFALVYSITAQSTFNDLQDLREQILRVKDTEDVPMILVGNKCDLEDERVVGKEQGQNLARQWCNCAFLESSAKSKINVNEIFYDLVRQINRKTPVEKKKPKKKSCLLL	no binding
Rap1V12 Y40C (enzyme, Point mutation in the effector region of the active Rap1V12) MREYKLVVLGSVGVGKSALTVQFVQGIFVEKYDPTIEDSCRKQVEVDCQQCMLEILDTAGTEQFTAMRDLYMKNGQGFALVYSITAQSTFNDLQDLREQILRVKDTEDVPMILVGNKCDLEDERVVGKEQGQNLARQWCNCAFLESSAKSKINVNEIFYDLVRQINRKTPVEKKKPKKKSCLLL	no binding
Rap1V12 E37G (enzyme, Point mutation in the effector region of the active Rap1V12) MREYKLVVLGSVGVGKSALTVQFVQGIFVEKYDPTIGDSYRKQVEVDCQQCMLEILDTAGTEQFTAMRDLYMKNGQGFALVYSITAQSTFNDLQDLREQILRVKDTEDVPMILVGNKCDLEDERVVGKEQGQNLARQWCNCAFLESSAKSKINVNEIFYDLVRQINRKTPVEKKKPKKKSCLLL	binds
